Listed here: items and their measured growth.
Test system: MDA-MB-468 breast
Test: NCI-60 one-dose screen, 48 h (100 = growth as untreated, 0 = no growth, -100 = all killed)
Conditions: 10 µM unless noted
Compounds without any hit were thinned out: in the full panel of roughly 83,000, 20% have a hit.
Numbers only; they are read as %.

Solved entries:
O=C1CCCc2nc3sc4c(=O)n(-c5ccccc5Cl)nnc4c3cc21 | 85.9
Cc1cc(C)c2c(N)c3cccc(C)c3nc2n1 | -54.4

Form field: reported growth of "CSC(=S)N/N=C(\C)c1ccccn1"
-19.5

Form field: reported growth of "CS(=O)(=O)N1CCc2c(-c3cnc(N)nc3)nc(N3CCOCC3)nc21"
-27.9

---

Listed here: items and their measured growth.
Tested on: MDA-MB-468 breast
Assay: NCI-60 one-dose screen, 48 h (100 = growth as untreated, 0 = no growth, -100 = all killed)
Details: 10 µM unless noted
This is part of a sample that, as a whole, favours compounds with a hit. Of some 83,000 tested, about 20% had one in any assay.
Numbers only; they are read as %.

Cn1cc(-c2ccc3nc(-c4ccc(CC(=O)ONc5cc(C(C)(C)C)on5)cc4)cnc3c2)cn1 | 45.8
CCOC(=O)CC1CSC(N/N=C/c2ccc(F)c(Br)c2)=N1 (stereo unspecified) | 116
COc1ccc(C(=O)/C=C/c2cc3c(c(OC)c2)OCC(=O)N3)cc1 | 42.3
COC(=O)CNC(=O)COc1c(OC)c(OC)cc2oc(-c3cccc(C(=O)Nc4ccc(Cl)cc4)c3)cc(=O)c12 | 94.6
COc1cc2cc(Oc3ccc(NC(=O)c4ccccc4)cc3)c(C)nc2cc1OC | 98.4

Form field: reported growth of "CNC(=O)c1cc(-c2ccc(NC(=O)Nc3ccc(N4CCN(C)CC4)c(C(F)(F)F)c3)cc2)nc2cccnc12"
-73.8

Form field: reported growth of "Cc1cc(C)c(CC(=O)O)c(C)c1"
111

Form field: reported growth of "Cc1cc(NC(=O)Nc2cccc3ccccc23)no1"
107

Form field: reported growth of "N#Cc1c(-c2ccc(Cl)cc2)nc(SCC(=O)NC2=NN=C(c3ccccc3)CS2)[nH]c1=O"
47.7

Form field: reported growth of "COc1cc(NC(=O)CCl)ccc(=O)c1"
75.6

Form field: reported growth of "O=C1C=CC(=O)c2c1nc1n2CCCC1"
90.2

---

Test system: MDA-MB-468 breast
Assay: NCI-60 one-dose screen, 48 h
Conditions: 10 µM unless noted
Compounds without any hit were thinned out: in the full panel of roughly 83,000, 20% have a hit. Calls of active or inactive are those of the source. How the source made its calls: active means growth percent below 10; inactive means the rest.
Field 'call' accepts active, inactive

CCC(C)(C)C(=O)O[C@H]1C[C@@H](C)C=C2C=C[C@H](C)[C@H](CC[C@@H]3C[C@@H](O)CC(=O)O3)[C@H]21 | inactive
c1ccc(COc2ccc(Nc3ncnc4c3cnn4-c3ccccc3)cc2)cc1 | inactive
O=C(CCCN1CCC(O)(c2ccc(Br)cc2)CC1)c1ccc(F)cc1 | inactive

Record request — test call for "COC(=O)[C@@H]1CCCN1C(=O)[C@H]1CCCN1C(=O)[C@@H](Cc1c[nH]c2ccccc12)NC(=S)Nc1cc(C(F)(F)F)cc(C(F)(F)F)c1"
inactive

Record request — test call for "Cc1ccc(C(=O)Nc2ccccc2C(=O)N/N=C(\c2ccccc2)c2ccccn2)cc1"
active

Record request — test call for CCCCN1C(=O)/C(=c2\sc3n(c2=O)NC2C(N=3)N(CC)C(=O)N2CC)c2ccccc21 (centres undefined)
inactive

Record request — test call for "COc1ccc(-c2nnc(-c3ccc4c(c3)nc(-c3ccncc3)n4C3CCCCC3)o2)cc1"
inactive

Record request — test call for CCC(CC(C)C)Nc1ccc(NC(CC)CC(C)C)cc1 (centres undefined)
inactive

Record request — test call for "Cc1cc(C(=O)Nc2ccc(SC#N)cc2)c(C)o1"
inactive

Record request — test call for "OCCN1CCN(c2nc(Nc3ccc(-c4nc5ccccc5[nH]4)cc3)c3cn[nH]c3n2)CC1"
active

Record request — test call for "COc1ccc(-c2n[nH]nc2-c2cc(OC)c3c(c2)OCO3)cc1"
inactive

Record request — test call for "CNC(=O)c1cc(Oc2ccc3c(c2)sc2nc(-c4ccc(N)cc4)cn23)ccn1"
inactive

Record request — test call for "O=[N+]([O-])c1ccc(N=Nc2ccc(O)c3ccccc23)cc1"
inactive

Record request — test call for "NC(N)=N/N=C/c1ccc([N+](=O)[O-])cc1"
inactive
